Please go through the items and note down their growth inhibition.
- PROCEDURE_DETAILS: NCI Yeast Anticancer Drug Screen. Data for the bub3 strain (AID 167)
- PROTOCOL_CONDITIONS: S. cerevisiae bub3 mutant strain, at 50.0 µM, stronger effect = higher value
About 79,000 compounds went through this panel and 15% of them were active in at least one assay; those are over-represented in the sample as a whole.
Report the figure in % without appending any unit label.

Q: Requested read-out: growth inhibition. Entry: `CC(=O)[O][Pb]([O]C(C)=O)([O]C(C)=O)[c]1ccccc1`
Ans: 91.8

Q: Consider the molecule shown here: COc1cc(C2c3cc4c(cc3C(O)[C@H]3COC(=O)C23)OCO4)cc(OC)c1O (stereo partly specified) What is its recorded growth inhibition?
Ans: -13.9

Q: For CC1=C(CC/C(C)=C/CCC2(C)CCC([C@H](C)C(=O)O)OO2)C(C)(C)CCC1 (stereo partly specified) (tested in a mixture with another compound) , what is its reported growth inhibition?
Ans: 92.2

Q: Need growth inhibition, item O=C1NC(=O)C(CC(C(=O)C(=O)Nc2ccccc2Cl)C(=O)c2ccc3ccccc3c2)C(=O)N1 (stereo unspecified)
Ans: 2.4

Q: Field request: growth inhibition | item: `ClCCCCl`
Ans: 4.9

Q: Form field: reported growth inhibition of CC12CCC(=O)C=C1CCC1C2CCC2(C)C(OC(=O)C34C=CC(=O)C3C3C=CC4CC3)CCC12 (stereo unspecified)
Ans: -4.45

Q: // query growth inhibition value for entry `C=CCC1(CC=C)C(=O)N(C)C(=O)N(C)C1=O`
Ans: 5.2

Q: GET /values?readout=growth inhibition&item= `Cc1ccc(C(C)(C)C)c(OP(=S)(S)Oc2cc(C)ccc2C(C)(C)C)c1.[Pb]`
Ans: -13.7

Q: Need growth inhibition, item O=C(O)C(C(=O)O)P(=S)(S)c1ccccc1 (stereo unspecified)
Ans: 35.3

Q: I have this molecule here, `C[C@@H]1C[C@H]2CC[C@H](O2)[C@H](C)C(=O)O[C@@H](C)C[C@@H]2CC[C@@H](O2)[C@@H](C)C(=O)O[C@H](C)C[C@H]2CC[C@H](O2)[C@H](C)C(=O)O[C@@H](C)C[C@@H]2CC[C@@H](O2)[C@@H](C)C(=O)O1` , and I need its recorded growth inhibition.
Ans: 84.3

Q: Need growth inhibition of `C/C(=C\c1ccc(Cl)c(Cl)c1)[N+](=O)[O-]` , thanks.
Ans: -4.85

Q: Bench note: what growth inhibition did COc1ccc(/C=C/C(=O)c2c(-c3ccccc3)nn(C)c(=O)c2N2CC2C)cc1 (stereo unspecified) show?
Ans: -4.8

Q: So what's the measured growth inhibition for this one? `NNc1ncc[nH]1`
Ans: 12.8

Q: Would you kindly share the measured growth inhibition for CC12CCC3C(CC=C4CC(SC(=N)N)CCC43C)C1CCC2=O (stereo unspecified) ?
Ans: 66.8

Q: What measured growth inhibition goes with O=[As]c1ccc(O)c(O)c1 (stereo unspecified) ?
Ans: 99.2

Q: Name the recorded growth inhibition for `CN(CCCl)c1ccc(/C=C/C2=[N+](C)c3ccccc3C2(C)C)cc1` .
Ans: 99.2

Q: Using the record for `CCNC(=O)OOC(C)(C)C` , report its growth inhibition.
Ans: 1.45

Q: Need growth inhibition, item `CC1=CC(=C2C=CC(=[N+](C)C)C=C2)C=C(C)S1`
Ans: 87.7

Q: # query: growth inhibition of entry `CC(=O)CC(C)=O.CC(=O)CC(C)=O.[Ni]`
Ans: -6.35

Q: What value of measured growth inhibition is listed for `C=CC[As](=O)(O)c1ccccc1Cl` ?
Ans: 98.3

Q: Entry `COc1ccc([N+](=O)[O-])cc1CNCCCl` : reported growth inhibition = ?
Ans: 20.1

Ref: PubChem BioAssay (NCI)
